# Assay summary: Inhibition of recombinant Escherichia coli DNA gyrase AB expressed in Escherichia coli BL21 (DE3) using relaxed pJT519 DNA as substrate preincubated for 20 mins followed by 5'-BODIPY-TMR-TTCTTCTTCT addition and measured after 1 hr by fluorescence anisotropy
Reported endpoint: IC50 (nM)
Provide only the numeric value, understood in nM.

Below are worked cases with known answers.
• C[C@@H]1CN2c3c(cc4c(-n5ncnc5[C@H](C)O)noc4c3F)CC3(C(=O)NC(=O)NC3=O)[C@H]2[C@H](C)O1 = 430
• Cc1ncn(-c2noc3c(F)c4c(cc23)CC2(C(=O)NC(=O)NC2=O)[C@H]2[C@H](C)O[C@H](C)CN42)n1 = 1000
• COCCNc1ncnn1-c1noc2c(F)c3c(cc12)CC1(C(=O)NC(=O)NC1=O)[C@H]1[C@H](C)O[C@H](C)CN31 = 38
• CNc1ncnn1-c1noc2c(F)c3c(cc12)CC1(C(=O)NC(=O)NC1=O)[C@H]1[C@H](C)O[C@H](C)CN31 = 71
• C[C@@H]1CN2c3c(cc4c(-n5ncnc5CO)noc4c3F)CC3(C(=O)NC(=O)NC3=O)[C@H]2[C@H](C)O1 = 190
• C[C@@H]1CN2c3c(cc4c(-n5ncnc5NCC(=O)N5CC[C@H](N(C)C)C5)noc4c3F)CC3(C(=O)NC(=O)NC3=O)[C@H]2[C@H](C)O1 = 180
• C[C@@H]1CN2c3c(cc4c(-n5cnnc5)noc4c3F)CC3(C(=O)NC(=O)NC3=O)[C@H]2[C@H](C)O1 = 300
• C[C@@H]1CN2c3c(cc4c(-n5ncnc5N(C)C)noc4c3F)CC3(C(=O)NC(=O)NC3=O)[C@H]2[C@H](C)O1 = 670
• COCCOc1ncnn1-c1noc2c(F)c3c(cc12)CC1(C(=O)NC(=O)NC1=O)[C@H]1[C@H](C)O[C@H](C)CN31 = 320
• C[C@@H]1CN2c3c(cc4c(-n5ccnc5)noc4c3F)CC3(C(=O)NC(=O)NC3=O)[C@H]2[C@H](C)O1 (racemic) = 490

// Input: C[C@@H]1CN2c3c(cc4c(-n5cncn5)noc4c3F)CC3(C(=O)NC(=O)NC3=O)[C@H]2[C@H](C)O1 . Output its IC50 only.
220

// Input: CCNc1ncnn1-c1noc2c(F)c3c(cc12)CC1(C(=O)NC(=O)NC1=O)[C@H]1[C@H](C)O[C@H](C)CN31 . Output its IC50 only.
97

// Input: C[C@@H]1CN2c3c(cc4c(-n5ncnc5NCC(=O)N5CC[C@@H](N(C)C)C5)noc4c3F)CC3(C(=O)NC(=O)NC3=O)[C@H]2[C@H](C)O1 . Output its IC50 only.
80

// Input: C[C@H](O)CNc1ncnn1-c1noc2c(F)c3c(cc12)CC1(C(=O)NC(=O)NC1=O)[C@H]1[C@H](C)O[C@H](C)CN31 . Output its IC50 only.
260

----------
# Assay summary: Solubility of the compound by high throughput solubility assay
# Format: physicochemical
Reported endpoint: log10 of solubility (log10 of the value in µM)
Values reflect log10 of reported solubility (µM).

Below are worked cases with known answers.
• COCc1ncnn1-c1noc2c(F)c3c(cc12)CC1(C(=O)NC(=O)NC1=O)[C@H]1[C@H](C)O[C@H](C)CN31 = 2.95
• C[C@@H]1CN2c3c(cc4c(-n5ccnc5)noc4c3F)CC3(C(=O)NC(=O)NC3=O)[C@H]2[C@H](C)O1 (racemic) = 1.08
• C[C@@H]1CN2c3c(cc4c(-n5cnc(C#N)n5)noc4c3F)CC3(C(=O)NC(=O)NC3=O)[C@H]2[C@H](C)O1 = 0.70
• C[C@@H]1CN2c3c(cc4c(-n5ncnc5NCC(=O)N5CC[C@H](N(C)C)C5)noc4c3F)CC3(C(=O)NC(=O)NC3=O)[C@H]2[C@H](C)O1 = 2.94
• C[C@@H]1CN2c3c(cc4c(-n5ncnc5[C@@H](C)O)noc4c3F)CC3(C(=O)NC(=O)NC3=O)[C@H]2[C@H](C)O1 = 2.96
• COc1ncnn1-c1noc2c(F)c3c(cc12)CC1(C(=O)NC(=O)NC1=O)[C@H]1[C@H](C)O[C@H](C)CN31 = 2.95

# ---- query molecule ----
// Input: C[C@@H]1CN2c3c(cc4c(-n5ncnc5NCCO)noc4c3F)CC3(C(=O)NC(=O)NC3=O)[C@H]2[C@H](C)O1 . Output its log10 of solubility only.
2.80

----------
This section presents compounds with their documented CL values.
# Assay summary: Plasma clearance in Wistar Han rat at 3 mg/kg, iv administered as 15 mins infusion by LC-MS/MS analysis
# Type: ADME, organism-based
# Set-up: unit not given here
# Recorded conditions: in vivo, 0.25 h
Returns: the value as a bare number; no unit string appended.

Below are worked cases with known answers.
- C[C@@H]1CN2c3c(cc4c(-n5cnc(C#N)n5)noc4c3F)CC3(C(=O)NC(=O)NC3=O)[C@H]2[C@H](C)O1: 200
- CCNc1ncnn1-c1noc2c(F)c3c(cc12)CC1(C(=O)NC(=O)NC1=O)[C@H]1[C@H](C)O[C@H](C)CN31: 11
- COc1ncnn1-c1noc2c(F)c3c(cc12)CC1(C(=O)NC(=O)NC1=O)[C@H]1[C@H](C)O[C@H](C)CN31: 13
- C[C@@H]1CN2c3c(cc4c(-n5ncnc5CO)noc4c3F)CC3(C(=O)NC(=O)NC3=O)[C@H]2[C@H](C)O1: 37
- CNc1ncnn1-c1noc2c(F)c3c(cc12)CC1(C(=O)NC(=O)NC1=O)[C@H]1[C@H](C)O[C@H](C)CN31: 32
- C[C@@H]1CN2c3c(cc4c(-n5ncnc5CN(C)C)noc4c3F)CC3(C(=O)NC(=O)NC3=O)[C@H]2[C@H](C)O1: 23
- COCc1ncnn1-c1noc2c(F)c3c(cc12)CC1(C(=O)NC(=O)NC1=O)[C@H]1[C@H](C)O[C@H](C)CN31: 17

# ---- query compound ----
// Input: C[C@@H]1CN2c3c(cc4c(-n5cncn5)noc4c3Cl)CC3(C(=O)NC(=O)NC3=O)[C@H]2[C@H](C)O1 . Output its CL only.
11.6

----------
# System: L5178Y
# Assay summary: Genotoxicity in mouse L5178Y cells using DAPI staining by microscopy based micronucleation assay
# Assay type: toxicity, cell-based
This section presents compounds with their documented NOAEL values.
Provide only the numeric value, understood in µM.

Below are worked cases with known answers.
* COc1ncnn1-c1noc2c(F)c3c(cc12)CC1(C(=O)NC(=O)NC1=O)[C@H]1[C@H](C)O[C@H](C)CN31 | 25
* CNc1ncnn1-c1noc2c(F)c3c(cc12)CC1(C(=O)NC(=O)NC1=O)[C@H]1[C@H](C)O[C@H](C)CN31 | 3
* C[C@@H]1CN2c3c(cc4c(-n5ncnc5CO)noc4c3F)CC3(C(=O)NC(=O)NC3=O)[C@H]2[C@H](C)O1 | 12

# ---- query compound ----
// Input: COCc1ncnn1-c1noc2c(F)c3c(cc12)CC1(C(=O)NC(=O)NC1=O)[C@H]1[C@H](C)O[C@H](C)CN31 . Output its NOAEL only.
12

----------
# Assay summary: Solubility of the compound by high throughput solubility assay
# Type: physicochemical
Reported endpoint: solubility (µM)
Provide only the numeric value, understood in µM.

• C[C@@H]1CN2c3c(cc4c(-n5cccn5)noc4c3F)CC3(C(=O)NC(=O)NC3=O)[C@H]2[C@H](C)O1 (racemic) = 29

// Input: C[C@@H]1CN2c3c(cc4c(-n5cncn5)noc4c3F)CC3(C(=O)NC(=O)NC3=O)[C@H]2[C@H](C)O1 . Output its solubility only.
250

// Input: C[C@H](O)CNc1ncnn1-c1noc2c(F)c3c(cc12)CC1(C(=O)NC(=O)NC1=O)[C@H]1[C@H](C)O[C@H](C)CN31 . Output its solubility only.
200

// Input: CCNc1ncnn1-c1noc2c(F)c3c(cc12)CC1(C(=O)NC(=O)NC1=O)[C@H]1[C@H](C)O[C@H](C)CN31 . Output its solubility only.
3

// Input: Cc1ncn(-c2noc3c(F)c4c(cc23)CC2(C(=O)NC(=O)NC2=O)[C@H]2[C@H](C)O[C@H](C)CN42)n1 . Output its solubility only.
29

----------
# Assay summary: Half life in Wistar Han rat at 3 mg/kg, iv administered as 15 mins infusion by LC-MS/MS analysis
# Assay type: ADME, organism-based
# Recorded conditions: in vivo
This section presents compounds with their documented half-life values.

- C[C@@H]1CN2c3c(cc4c(-n5cncn5)noc4c3F)CC3(C(=O)NC(=O)NC3=O)[C@H]2[C@H](C)O1: 2.41 h

// Input: C[C@@H]1CN2c3c(cc4c(N5C(=O)OC[C@@H]5C)noc4c3F)CC3(C(=O)NC(=O)NC3=O)[C@H]2[C@H](C)O1 . Output its half-life only.
0.79 h

// Input: COc1ncnn1-c1noc2c(F)c3c(cc12)CC1(C(=O)NC(=O)NC1=O)[C@H]1[C@H](C)O[C@H](C)CN31 . Output its half-life only.
1.69 h
